B1: IQUB (parent)
chain: EADYEDDSKIAFLMQLQDIQYLTE

Variants of: B1
Assay: protein stability index of a GFP-peptide fusion (GPS, HEK-293T) (PSI 1-6); higher = more stable;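 note: lentivirally expressed fusions sorted by FACS into six bins by GFP to DsRed ratio, PSI derived from sequencing read proportions per bin multiplied by bin number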
Details: c terminus: a fixed tail appended
Class membership depends on protein stability index alone; the intervals are lower range (below 3), middle range (3 to below 4), upper range (4 or more)

[[record]]
seq_string = "EADYVDDSKIAFLMQLQDIQYLTE"
label_class = "lower range"

[[record]]
seq_string = "EADYEDDSKHAFLMQLQDIQYLTE"
label_class = "upper range"

[[record]]
seq_string = "EADYEDDSKIASLMQLQDIQYLTE"
label_class = "upper range"

[[record]]
seq_string = "EADYEDDSKIAFLMQLQDIQYYTE"
label_class = "middle range"


Please let me know in which category the item `EADYEDDSKIAFLIQLQDIQYLTE` belongs.
lower range

Please let me know in which category the item `EADYEDDSKTAFLMQLQDIQYLTE` belongs.
middle range

Please let me know in which category the item `EADYEDDSKIAFLMRLQDIQYLTE` belongs.
lower range

Please let me know in which category the item `EADYEDDSKIAFLMQLQDIQQLTE` belongs.
middle range
